IC50: recorded values
# test.system: Syk kinase (Homo sapiens)
# Construct: purchased
# method.description: Syk kinase inhibition, Caliper LabChip off-chip mobility-shift kinase assay
# Format: biochemical
# condition.summary: Caliper LabChip assay; read-out: Syk Enzyme IC50
Supply the numeric figure in nM, leaving out any unit text.

>>> df
                                 smiles_str  numeric_value
0  CC(C)n1ccc2cc(Nc3c[n+]([O-])ccn3)nc(N[C@H]3CC[C@@H](O)C3)c2c1=O             25
1  N#CCCn1ccc2cc(Nc3cnccn3)nc(N[C@H]3CC[C@@H](O)CC3)c2c1=O             14

Now for the compound whose IC50 we want.
Kindly note the recorded IC50 for `O=c1[nH]ccc2cc(Nc3cnccn3)nc(NC3CCCC3)c12` , which is 7

###

# test.system: Syk kinase (Homo sapiens)
# Construct: purchased
# method.description: Syk kinase inhibition, Caliper LabChip off-chip mobility-shift kinase assay
# Assay type: biochemical
# condition.summary: read-out: Syk Enzyme IC50
# reported IC50; entries follow
A number alone suffices; assume µM.

In [3]: df
Out[3]:
                                   compound  measured_parameter  numeric_value
0  Cn1ccc2cc(Nc3cnccn3)nc(NCC3CCCO3)c2c1=O (stereo not shown) [compound 475]                IC50          0.139
1  CCN1CCN(c2n[nH]c3cc(Nc4nc(-c5cnc(OC)nc5)cc5cc[nH]c(=O)c45)ccc23)CC1 [compound 201]                IC50           0.07
2  C[C@H](CO)Nc1nc(Nc2ccccn2)cc2cc[nH]c(=O)c12 [compound 299]                IC50          0.068

Consider the additional compound presented here.
Item: CCOCC(=O)N1CCC(c2ccc(Nc3nc(-c4cncc(OC)n4)cc4cc[nH]c(=O)c34)cc2)CC1 [compound 28] | IC50: 0.115

###

# test.system: Syk kinase (Homo sapiens)
# Construct: purchased
# method.description: Syk kinase inhibition, Caliper LabChip off-chip mobility-shift kinase assay
# Assay type: biochemical
# condition.summary: read-out: Syk Enzyme IC50
measured.parameter: IC50 (nM)
Numbers only; they are read as nM.

>>> df
                                   compound  measured_parameter  numeric_value
0  Cn1ccc2cc(Nc3cnccn3)nc(NCC(F)(F)F)c2c1=O [compound 464]                IC50             81

// sample CO/N=C(\C)c1cc2cc[nH]c(=O)c2c(Nc2ccc(N3CCO[C@H](C)C3)c(C)c2)n1 [compound 234] , its IC50 was 1310

Cn1ccc2cc(Nc3cnccn3)nc(Nc3cccc(C(N)=O)c3)c2c1=O [compound 477] has a reported IC50 of 580

###

# test.system: Syk kinase (Homo sapiens)
# Construct: purchased
# method.description: Syk kinase inhibition, Caliper LabChip off-chip mobility-shift kinase assay
# Type: biochemical
# condition.summary: read-out: Syk Enzyme IC50
measured.parameter: pIC50
On this scale, pIC50 is minus log10 of a concentration expressed in M (mol/L).

Would you please look over these solved cases?
>>> print(df.to_string())
                                 smiles_str  numeric_value
0  CCn1ccc2cc(Nc3cc(C)ccn3)nc(N[C@@H]3CC[C@H](O)C3)c2c1=O           7.15
1  Cc1cc(-c2cc3cc[nH]c(=O)c3c(Nc3ccc(C4CCN(CCC#N)CC4)c(C)c3)n2)nc(N)n1           6.46
2  CCn1ccc2cc(-c3cnc(N)nc3)nc(NC3CC3)c2c1=O           7.16
3  CN1CCCN(CCc2ccc(Nc3nc(-c4cncnc4)cc4cc[nH]c(=O)c34)cc2)CC1           7.07
4  CCn1ccc2cc(Nc3cnccn3)nc(N[C@H]3CCOC3)c2c1=O           7.43

Note to self: pIC50 recorded for `CCN1CCN(CCc2ccc(Nc3nc(Nc4ccc(C(F)(F)F)cn4)cc4cc[nH]c(=O)c34)cc2)CC1` was 6.20

Just so you know, measured pIC50 for `Cc1ccnc(Nc2cc3ccn(CCN(C)C)c(=O)c3c(N[C@H]3CC[C@@H](O)CC3)n2)c1` came out at 7.31

Lab book: pIC50 of `CC(C)Nc1nc(Nc2cc(CO)ccn2)cc2cc[nH]c(=O)c12` noted as 7.47

Entry `CCn1ccc2cc(Nc3cc(C)ccn3)nc(NC(C)(C)CO)c2c1=O` , pIC50 reported as 7.27

Where do these numbers come from? They come from patent US20110053897A1.
